tested on: NCI-H23 lung; experiment: NCI tumour cell line growth inhibition, 48 h; in the data active = GI50 below about 0.43 µM; inactive = the rest
The categories you may choose from are active, inactive

Req: Answer briefly: the call reported for CN1CCN(CCOc2ccc(-c3cnc4c(-c5ccc(C(F)(F)F)cc5)cnn4c3)cc2)CC1 in this assay.
Resp: inactive

Req: Answer briefly: the call reported for NC(=O)c1ccccc1Nc1ccc2nnc(-c3ccncc3)n2n1 in this assay.
Resp: inactive

Req: Answer briefly: the call reported for CCC1CN2C(=N1)c1ccccc1-c1cc(Cl)ccc12 (stereo not drawn) in this assay.
Resp: inactive

Req: Answer briefly: the call reported for C1COCCN1.C1COCCN1.NC1CCCCC1N.[Cl-].[Pt+2] (stereo not drawn) in this assay.
Resp: inactive

Req: Answer briefly: the call reported for CNC(=O)c1cccc2cc(Oc3ccnc4cc(OCC5(N)CC5)c(OC)cc34)ccc12 in this assay.
Resp: inactive
